- PROTOCOL NOTES: Oral bioavailability in Crl:CD(SD) rat at 10 mg/kg by LC-MS/MS analysis
- Format: ADME, organism-based
- MEASUREMENT CONDITIONS: in vivo
PROPERTY NAME: bioavailability (%)
Please state the figure in %; there is no need to write the unit.

Query: State its bioavailability for this molecule: Cc1nc(OCC(=O)N(C)C2CCN(Cc3ccccc3)CC2)nc(C)c1N
Reply: 70

---

Collected Kp at 1 h values appear next to each entry.
- PROTOCOL NOTES: Ratio of drug level in Crl:CD(SD) rat brain to plasma at 1 mg/kg, iv measured after 1 hr by LC-MS/MS analysis
- Type: ADME, organism-based
Just the number, please, no unit attached.

Here are 2 compounds together with their reported answers.
>>> result_number("Cc1nc(OCC(=O)N(C)C2CCN(CC3CC3(F)F)CC2)nc(C)c1N.Cl (racemic)")
0.12
>>> result_number("Cc1nc(OCC(=O)N(C)C2CCN(Cc3ccccc3)CC2)nc(C)c1N")
0.15

Turning to the following compound.
Query: Identify the reported Kp at 1 h for the following entry. CN(C(=O)COc1ccc(Cl)nn1)C1CCN(CC2CC2(F)F)CC1 (stereo not drawn)
Reply: 0.92

Values from ChEMBL document CHEMBL4622926
